test.target: PP1γ (Homo sapiens, UniProt P36873)
Sequence (P36873 whole entry, the tested form may be a part): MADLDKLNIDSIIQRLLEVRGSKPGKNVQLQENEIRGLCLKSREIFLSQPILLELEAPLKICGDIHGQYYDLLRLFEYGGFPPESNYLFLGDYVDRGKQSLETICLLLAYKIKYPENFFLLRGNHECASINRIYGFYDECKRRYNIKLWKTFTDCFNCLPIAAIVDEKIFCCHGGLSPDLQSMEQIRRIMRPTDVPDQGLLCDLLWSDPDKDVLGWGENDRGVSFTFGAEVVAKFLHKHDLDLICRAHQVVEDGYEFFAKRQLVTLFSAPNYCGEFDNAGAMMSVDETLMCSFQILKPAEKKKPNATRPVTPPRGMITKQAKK
method.summary: Blot overlay binding of digoxigenin-labelled PP1γ to GST-GL fusion proteins
condition.summary: fusion proteins on nitrocellulose membranes
endpoint.label: binding of digoxigenin-labelled PP1γ

• GST-GL(94-284): GST fused to GL residues 94-284 (protein, left off: a dimerising Fc or GST) LLDNIVSLTTAESESFVLDFPQPSADYLDFRNRLQTNHVCLENCVLKEKAIAGTVKVQNLAFEKVVKIRMTFDTWKSFTDFPCQYVKDTYAGSDRDTFSFDISLPEKIQSYERMEFAVCYECNGQSYWDSNKGKNYRITRAELRSTQGMTEPYNGPDFGISFDQFGSPRCSFGLFPEWPSYLGYEKLGPYY = not
